TGI listing for selected compounds.
tested on: MDA-MB-435; experiment: NCI tumour cell line growth inhibition, 48 h

Compound | Assay result
CS(=O)(=O)OCCCCOS(C)(=O)=O | > 1000 µM

Request: # return recorded TGI for input `Nc1c(C(=O)c2cccc(C(O)(CO)CO)c2)cnn1-c1ccc(F)cc1`
Response: > 25 µM

====

TGI listing for selected compounds.
system: 786-0 renal; assay: NCI tumour cell line growth inhibition, 48 h

Example results:
Structure smiles | Assay result
CC1(C)CC(=O)c2c([nH]c(=S)c(C#N)c2-c2ccc(Br)cc2)C1 | > 100 µM
CCOP(=O)(OCC)c1cc2cc(O)ccc2oc1=O | > 100 µM
CCOC(=O)NC(=O)c1cn(CC(=O)NCC(=O)NCC(=O)N2CCN(CCn3c(C)nc(C(N)=O)c3N)CC2)c(=O)[nH]c1=O | > 100 µM
O=C(O)c1[nH]c(=O)[nH]c(=O)c1CN1CCCCC1 | > 100 µM
COc1ccc2c(c1)O/C(=C\c1ccc([N+](=O)[O-])o1)C2=O | 4.83 µM

Request: # return recorded TGI for input `Cc1c2ccccc2c(CSC(=N)N)c2ccccc12`
Response: 0.745 µM

Request: # return recorded TGI for input `CC(C)(c1ccccc1)c1ccc(Oc2ccc3c(c2)-c2nc-3nc3[nH]c(nc4nc(nc5[nH]c(n2)c2ccc(Oc6ccc(C(C)(C)c7ccccc7)cc6)cc52)-c2cc(Oc5ccc(C(C)(C)c6ccccc6)cc5)ccc2-4)c2ccc(Oc4ccc(C(C)(C)c5ccccc5)cc4)cc32)cc1`
Response: > 100 µM

Request: # return recorded TGI for input `O=P1(N(CCCl)CCCl)Oc2c(Cl)cc(Cl)c(Cl)c2Cc2c(Cl)c(Cl)cc(Cl)c2O1`
Response: > 100 µM
